Values compiled from ChEMBL document CHEMBL4184210.

System: Escherichia coli
Experiment: microbe, parasite or virus in culture
Description: Antimicrobial activity against wild type Escherichia coli by CLSI broth microdilution method
Returns: string. Value is yes (1) if measured MIC is below 0.5 µg/mL, and no (0) if it is greater than or equal to it.

molecule: Nc1nc(/C(=N/OC2(C(=O)O)CC2)C(=O)N[C@@H]2C(=O)N(S(=O)(=O)O)[C@@H]2CN2CCOC2=O)cs1 (stereo in doubt)
assigned-category: yes (1)

molecule: CC(C)(O/N=C(\C(=O)N[C@@H]1C(=O)N2C(C(=O)[O-])=C(C[n+]3ccccc3)CS[C@H]12)c1csc(N)n1)C(=O)O
assigned-category: yes (1)

molecule: CC(C)(O/N=C(\C(=O)N[C@@H]1C(=O)N(S(=O)(=O)O)[C@@H]1Cn1cnnc1)c1csc(N)n1)C(=O)O (stereo in doubt)
assigned-category: no (0)

molecule: N=C(N)NCc1cn(C[C@@H]2[C@H](NC(=O)/C(=N\OC3(C(=O)O)CC3)c3csc(N)n3)C(=O)N2S(=O)(=O)O)nn1 (stereo in doubt)
assigned-category: yes (1)

For the next question, use this molecule.
Bench note: check whether CC(C)(O/N=C(\C(=O)N[C@@H]1C(=O)N(S(=O)(=O)O)[C@@H]1Cn1cc(C(=O)O)nn1)c1csc(N)n1)C(=O)O (stereo in doubt) shows MIC below 0.5 µg/mL
no (0)

====

Test system: Pseudomonas aeruginosa
Test: Antimicrobial activity against Pseudomonas aeruginosa expressing nalB/delta-mexXY/delta-mexCDoprJ/delta-ampC by CLSI broth microdilution method
Type: functional
Some compounds, each annotated with its measured MIC.

Below: 3 compounds and their reported MIC.
compound: N=C(N)NCc1cnn(C[C@@H]2[C@H](NC(=O)/C(=N\OC3(C(=O)O)CC3)c3csc(N)n3)C(=O)N2S(=O)(=O)O)n1 (stereo in doubt)
target-entity: Pseudomonas aeruginosa
result-type: MIC
meas-value: 16 µg/mL
--
compound: NC[C@@H]1CN(C[C@@H]2[C@H](NC(=O)/C(=N\OC3(C(=O)O)CC3)c3csc(N)n3)C(=O)N2S(=O)(=O)O)C(=O)O1 (stereo in doubt)
target-entity: Pseudomonas aeruginosa
result-type: MIC
meas-value: > 64 µg/mL
--
compound: Nc1nc(/C(=N/OC2(C(=O)O)CC2)C(=O)N[C@@H]2C(=O)N(S(=O)(=O)O)[C@H]2CN2CCOC2=O)cs1 (stereo in doubt)
target-entity: Pseudomonas aeruginosa
result-type: MIC
meas-value: > 64 µg/mL

State the recorded MIC for this entry: Nc1nc(/C(=N/OC2(C(=O)O)CC2)C(=O)N[C@@H]2C(=O)N(S(=O)(=O)O)[C@@H]2CN2CCOC2=O)cs1 (stereo in doubt) [ANCREMONAM]
≥ 64 µg/mL

====

Tested on: Escherichia coli
Test: microbe, parasite or virus in culture
Description: Antimicrobial activity against Escherichia coli expressing beta-lactamase TEM-10 by CLSI broth microdilution method
Simple rule here: MIC less than 8 µg/mL is true (1), otherwise false (0).

compound: CC(C)(O/N=C(\C(=O)N[C@@H]1C(=O)N(S(=O)(=O)O)[C@@H]1CN1C[C@H](CNC(=N)N)OC1=O)c1csc(N)n1)C(=O)O (stereo in doubt)
assigned-category: false (0)

Strictly below 8 µg/mL in MIC? CC(C)(O/N=C(\C(=O)N[C@@H]1C(=O)N(S(=O)(=O)O)[C@@H]1Cn1ncnc1CN)c1csc(N)n1)C(=O)O (stereo in doubt)
true (1)

In the record for CC(C)(O/N=C(\C(=O)N[C@@H]1C(=O)N(S(=O)(=O)O)[C@@H]1Cn1nccn1)c1csc(N)n1)C(=O)O (stereo in doubt) , is MIC less than 8 µg/mL?
true (1)

Hello, is MIC of the following compound strictly smaller than 8 µg/mL? CC(C)(O/N=C(\C(=O)N[C@@H]1C(=O)N(S(=O)(=O)O)[C@@H]1Cn1ncnc1CNC(=N)N)c1csc(N)n1)C(=O)O (stereo in doubt)
false (0)

====

Test system: Escherichia coli
Experiment: Antimicrobial activity against Escherichia coli expressing beta-lactamase KPC-2 by CLSI broth microdilution method
Format: functional
Listed next: entries and their corresponding MIC.
Write the number in µg/mL without appending the unit.

molecule: CC(C)(O/N=C(/C(=O)N[C@@H]1C(=O)N(S(=O)(=O)O)[C@@H]1CF)c1csc(N)n1)C(=O)O (stereo in doubt)
result-type: MIC
meas-value: 1

molecule: CC(C)(O/N=C(\C(=O)N[C@@H]1C(=O)N(S(=O)(=O)O)[C@@H]1Cn1nccn1)c1csc(N)n1)C(=O)O (stereo in doubt)
result-type: MIC
meas-value: 1

molecule: NC(=O)OC[C@@H]1[C@H](NC(=O)/C(=N\OCC(=O)O)c2csc(N)n2)C(=O)N1S(=O)(=O)O
result-type: MIC
meas-value: 1

molecule: CC(C)(O/N=C(\C(=O)N[C@@H]1C(=O)N(S(=O)(=O)O)[C@@H]1CN1CCC1=O)c1csc(N)n1)C(=O)O (stereo in doubt)
result-type: MIC
meas-value: 4

Escherichia coli / MIC / CC(C)(O/N=C(\C(=O)N[C@@H]1C(=O)N(S(=O)(=O)O)[C@@H]1Cn1cc(C(=O)O)nn1)c1csc(N)n1)C(=O)O (stereo in doubt) : value?
16

Please state recorded MIC (tested on Escherichia coli) of Nc1nc(/C(=N/OC2(C(=O)O)CC2)C(=O)N[C@@H]2C(=O)N(S(=O)(=O)O)[C@H]2CN2CCOC2=O)cs1 (stereo in doubt)
0.5

Reported MIC for Escherichia coli, given CC(C)(O/N=C(\C(=O)N[C@@H]1C(=O)N(S(=O)(=O)O)[C@@H]1Cn1ncnc1CN)c1csc(N)n1)C(=O)O (stereo in doubt) ?
4

====

Reported half-life is given for each of the following compounds.
Experiment: Chemical stability in pH 7.4 potassium phosphate buffer assessed as half life for compound hydrolysis at 37 degC by UPLC and mass spectrometry
Format: physicochemical

compound: CC(C)(O/N=C(\C(=O)N[C@@H]1C(=O)N(S(=O)(=O)O)[C@@H]1Cn1cc(NC(=O)C[N+](C)(C)C)nn1)c1csc(N)n1)C(=O)O
half-life: > 1.54 days
--
compound: C[C@@H](O)[C@H]1C(=O)N2C(C(=O)O)=C(S[C@@H]3CN[C@H](C(=O)N(C)C)C3)[C@H](C)[C@H]12 [MEROPENEM]
half-life: 3.25 days
--
compound: CC(C)(O/N=C(\C(=O)N[C@@H]1C(=O)N(S(=O)(=O)O)[C@@H]1Cn1ncnc1CNC(=N)N)c1csc(N)n1)C(=O)O (stereo in doubt)
half-life: > 1.54 days

Return reported half-life; argument: CC(C)(O/N=C(\C(=O)N[C@@H]1C(=O)N(S(=O)(=O)O)[C@@H]1CN1C[C@@H](CN)OC1=O)c1csc(N)n1)C(=O)O (stereo in doubt)
> 1.54 days

Please report the recorded half-life for CC(C)(O/N=C(\C(=O)N[C@@H]1C(=O)N(S(=O)(=O)O)[C@@H]1CN1C[C@H](CO)OC1=O)c1csc(N)n1)C(=O)O (stereo in doubt) .
> 1.54 days

# query: half-life of entry CC(C)(O/N=C(\C(=O)N[C@@H]1C(=O)N(S(=O)(=O)O)[C@@H]1Cn1ccnn1)c1csc(N)n1)C(=O)O (stereo in doubt)
10.7 days

====

Quick reference: half-life of the listed items.
Test: Chemical stability in pH 7.4 potassium phosphate buffer assessed as half life for compound hydrolysis at 37 degC by UPLC and mass spectrometry
Format: physicochemical
Give the number; h is assumed, so skip it.

Look up half-life for this molecule: NC[C@@H]1CN(C[C@@H]2[C@H](NC(=O)/C(=N\OC3(C(=O)O)CC3)c3csc(N)n3)C(=O)N2S(=O)(=O)O)C(=O)O1 (stereo in doubt)
157

Given the entry Nc1nc(/C(=N/OC2(C(=O)O)CC2)C(=O)N[C@@H]2C(=O)N(S(=O)(=O)O)[C@@H]2CN2CCOC2=O)cs1 (stereo in doubt) [ANCREMONAM] , report its measured half-life.
400

Find the recorded half-life belonging to CC(C)(O/N=C(\C(=O)N[C@@H]1C(=O)N(S(=O)(=O)O)[C@@H]1Cn1ccc(N)n1)c1csc(N)n1)C(=O)O (stereo in doubt) and report it.
3.5

# query: half-life of entry N=C(N)NCc1cnn(C[C@@H]2[C@H](NC(=O)/C(=N\OC3(C(=O)O)CC3)c3csc(N)n3)C(=O)N2S(=O)(=O)O)n1 (stereo in doubt)
486

Requested read-out: half-life. Entry: Nc1nc(/C(=N/OC2(C(=O)O)CC2)C(=O)N[C@@H]2C(=O)N(S(=O)(=O)O)[C@H]2CN2CCOC2=O)cs1 (stereo in doubt)
450

// returns reported half-life for input CC(C)(O/N=C(\C(=O)N[C@@H]1C(=O)N(S(=O)(=O)O)[C@@H]1Cn1cnnc1)c1csc(N)n1)C(=O)O (stereo in doubt)
113

====

Test system: Escherichia coli
Test: microbe, parasite or virus in culture
Description: Antimicrobial activity against Escherichia coli expressing beta-lactamase Oxa-18 by CLSI broth microdilution method
Label key: rule met means MIC under 0.5 µg/mL; rule not met means MIC of 0.5 µg/mL or more.

Field: example entries. Status: answers known.
compound: C[C@@H](O)[C@H]1C(=O)N2C(C(=O)O)=C(S[C@@H]3CN[C@H](C(=O)N(C)C)C3)[C@H](C)[C@H]12 [MEROPENEM]
assigned-category: rule met
//
compound: C[C@@H](O)[C@H]1C(=O)N2C(C(=O)O)=C(SCCNC=N)C[C@H]12 [IMIPENEM ANHYDROUS]
assigned-category: rule met
//
compound: N=C(NC1CCNCC1)c1ccc(OC[C@H](O/N=C(\C(=O)N[C@@H]2C(=O)N(S(=O)(=O)O)[C@@H]2Cn2cncn2)c2csc(N)n2)C(=O)O)cc1 (stereo in doubt)
assigned-category: rule not met
//
compound: N=C(N)NCc1cn(C[C@@H]2[C@H](NC(=O)/C(=N\OC3(C(=O)O)CC3)c3csc(N)n3)C(=O)N2S(=O)(=O)O)nn1 (stereo in doubt)
assigned-category: rule not met

Field: below-cutoff. Rule: recorded MIC strictly less than 0.5 µg/mL. Subject: CC1(C)[C@H](NC(=O)/C(=N\OCc2cc(=O)c(O)cn2O)c2csc(N)n2)C(=O)N1OS(=O)(=O)O (stereo in doubt)
rule not met

Is the reported MIC for NC(=O)OC[C@@H]1[C@H](NC(=O)/C(=N\OCC(=O)O)c2csc(N)n2)C(=O)N1S(=O)(=O)O [CARUMONAM] strictly below 0.5 µg/mL?
rule not met
